# subject_of_test: UGT1A1 (Homo sapiens)
# Sequence (P22309 26-533): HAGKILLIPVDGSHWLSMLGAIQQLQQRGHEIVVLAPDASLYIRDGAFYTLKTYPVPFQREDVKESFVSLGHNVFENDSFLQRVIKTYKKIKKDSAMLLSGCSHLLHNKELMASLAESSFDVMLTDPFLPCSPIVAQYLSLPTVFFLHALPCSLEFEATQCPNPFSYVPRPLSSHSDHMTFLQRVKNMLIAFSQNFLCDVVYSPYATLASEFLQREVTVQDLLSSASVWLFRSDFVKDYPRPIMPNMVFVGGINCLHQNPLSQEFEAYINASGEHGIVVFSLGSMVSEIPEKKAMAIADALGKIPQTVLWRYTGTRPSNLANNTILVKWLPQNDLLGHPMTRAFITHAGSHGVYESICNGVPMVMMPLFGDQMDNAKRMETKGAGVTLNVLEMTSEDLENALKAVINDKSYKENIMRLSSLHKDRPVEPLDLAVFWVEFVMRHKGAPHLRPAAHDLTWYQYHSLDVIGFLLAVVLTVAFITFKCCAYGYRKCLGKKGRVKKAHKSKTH
# assay_procedure: in vitro
# settings: pooled liver microsomes, UGT1A1*1*28 (6/7) genotype, pH 7.4
readout: microsomal CLint (µL/min/mg)
Only the number, expressed in µL/min/mg, is required.

Asked: State, in one line, measured microsomal CLint of CCc1c2c(nc3ccc(O)cc13)-c1cc3c(c(=O)n1C2)COC(=O)[C@]3(O)CC [SN-38, 7-ethyl-10-hydroxycamptothecin]
Given back: 29.2

The measurements presented in this section are drawn from paper PMC5522258.
